Documented inhibition across a set of compounds
target: Ubiquitin carboxyl-terminal hydrolase 2 (Homo sapiens) (UniProt O75604); test: Inhibition of human USP2 using Ub-rhodamine 110 as substrate at 31 uM
Sequence (O75604 whole entry): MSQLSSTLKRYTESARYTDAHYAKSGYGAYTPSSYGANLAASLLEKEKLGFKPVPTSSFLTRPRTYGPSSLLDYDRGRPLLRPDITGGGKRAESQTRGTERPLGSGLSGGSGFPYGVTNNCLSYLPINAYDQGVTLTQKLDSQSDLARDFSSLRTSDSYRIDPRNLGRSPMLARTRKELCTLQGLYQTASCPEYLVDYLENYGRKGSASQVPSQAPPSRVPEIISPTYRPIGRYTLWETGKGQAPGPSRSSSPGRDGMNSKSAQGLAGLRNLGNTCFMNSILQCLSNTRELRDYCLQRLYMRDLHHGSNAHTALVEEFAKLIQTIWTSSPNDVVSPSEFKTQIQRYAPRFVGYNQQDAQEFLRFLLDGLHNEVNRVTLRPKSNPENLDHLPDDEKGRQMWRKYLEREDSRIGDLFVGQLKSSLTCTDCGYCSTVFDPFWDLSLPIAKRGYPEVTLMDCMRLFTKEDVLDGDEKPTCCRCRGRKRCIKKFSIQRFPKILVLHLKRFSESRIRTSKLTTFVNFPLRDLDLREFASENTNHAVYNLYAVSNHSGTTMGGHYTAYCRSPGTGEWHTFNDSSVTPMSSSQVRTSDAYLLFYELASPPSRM

Example entries begin here.
{"molecularString": "C[C@H](c1cccc2ccccc12)N1CCC(C(=O)NCc2ccc(F)cc2)CC1", "inhibition": "< 10%"}
{"molecularString": "C[C@H](c1cccc2ccccc12)N1CCC(C(=O)NCc2ccc3c(c2)OCO3)CC1", "inhibition": "< 10%"}
{"molecularString": "C[C@H](c1cccc2ccccc12)N1CCC(C(=O)NCc2cccc(F)c2)CC1", "inhibition": "< 10%"}

Now turn to the next compound.
Would you mind telling me what inhibition value was observed for `CC(=O)Nc1cccc(CNC(=O)C2CCN([C@H](C)c3cccc4ccccc34)CC2)c1` ? 10%

###

molecular target: Replicase polyprotein 1a (Human coronavirus NL63); assay: Inhibition of human coronavirus NL63 PLP2 (amino acids 1565 to 1894) expressed in Escherichia coli BL21 (DE3) cells assessed as reduction of AMC release using Z-RLRGG-AMC as substrate by multimode plate reader analysis
Sequence (P0C6U6 899-2462 limits assumed): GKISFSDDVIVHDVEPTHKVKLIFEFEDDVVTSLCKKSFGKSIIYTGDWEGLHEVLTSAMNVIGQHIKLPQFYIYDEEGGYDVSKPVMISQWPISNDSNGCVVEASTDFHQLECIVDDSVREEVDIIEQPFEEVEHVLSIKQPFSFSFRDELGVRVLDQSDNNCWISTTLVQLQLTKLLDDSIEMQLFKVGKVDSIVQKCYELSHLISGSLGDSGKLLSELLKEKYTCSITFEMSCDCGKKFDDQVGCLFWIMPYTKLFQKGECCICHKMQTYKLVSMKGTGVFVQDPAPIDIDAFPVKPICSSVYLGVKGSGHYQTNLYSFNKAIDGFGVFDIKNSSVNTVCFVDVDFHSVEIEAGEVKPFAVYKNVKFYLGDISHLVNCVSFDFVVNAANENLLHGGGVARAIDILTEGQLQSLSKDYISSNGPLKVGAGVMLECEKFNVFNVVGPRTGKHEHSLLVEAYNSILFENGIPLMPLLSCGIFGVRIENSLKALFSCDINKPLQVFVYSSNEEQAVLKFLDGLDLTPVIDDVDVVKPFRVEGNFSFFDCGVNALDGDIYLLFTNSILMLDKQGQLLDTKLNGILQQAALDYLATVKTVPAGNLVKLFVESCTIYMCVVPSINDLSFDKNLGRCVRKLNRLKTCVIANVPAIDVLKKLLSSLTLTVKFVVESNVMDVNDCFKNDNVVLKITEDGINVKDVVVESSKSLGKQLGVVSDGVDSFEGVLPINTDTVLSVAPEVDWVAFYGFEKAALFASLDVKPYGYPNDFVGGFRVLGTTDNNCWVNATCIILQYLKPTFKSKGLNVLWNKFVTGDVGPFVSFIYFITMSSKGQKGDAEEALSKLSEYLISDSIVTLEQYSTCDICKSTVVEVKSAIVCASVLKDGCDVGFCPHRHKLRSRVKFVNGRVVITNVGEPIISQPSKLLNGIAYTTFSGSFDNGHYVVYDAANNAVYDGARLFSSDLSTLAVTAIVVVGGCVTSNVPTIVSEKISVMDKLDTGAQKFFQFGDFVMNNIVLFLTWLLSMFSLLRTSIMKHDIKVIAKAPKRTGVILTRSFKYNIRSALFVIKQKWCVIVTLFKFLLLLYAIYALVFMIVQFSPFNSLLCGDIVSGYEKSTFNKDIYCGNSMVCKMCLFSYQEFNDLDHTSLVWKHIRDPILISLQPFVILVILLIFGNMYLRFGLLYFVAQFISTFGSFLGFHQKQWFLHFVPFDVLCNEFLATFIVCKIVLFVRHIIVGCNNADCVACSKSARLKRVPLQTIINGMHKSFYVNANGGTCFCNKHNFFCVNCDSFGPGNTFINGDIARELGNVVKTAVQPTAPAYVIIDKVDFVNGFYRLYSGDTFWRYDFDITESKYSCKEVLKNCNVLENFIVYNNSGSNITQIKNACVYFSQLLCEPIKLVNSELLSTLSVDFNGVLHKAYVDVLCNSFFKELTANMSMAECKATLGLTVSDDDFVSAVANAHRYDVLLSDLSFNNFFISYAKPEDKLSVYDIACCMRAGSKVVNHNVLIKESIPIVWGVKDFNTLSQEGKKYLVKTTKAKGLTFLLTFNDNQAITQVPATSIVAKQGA
The threshold is 40 µM. Values of IC50 beneath it are tagged YES; values meeting or exceeding it are tagged NO.

Is IC50 strictly under 40 µM for the entry `C[C@H](c1cccc2ccccc12)N1CCC(C(=O)NCc2cccc(F)c2)CC1` ? YES

###

molecular target: Ubiquitin carboxyl-terminal hydrolase 20 (Homo sapiens); test: Inhibition of human USP20 using Ub-rhodamine 110 as substrate; conditions: read-out: IC50
Sequence (Q9Y2K6 whole entry): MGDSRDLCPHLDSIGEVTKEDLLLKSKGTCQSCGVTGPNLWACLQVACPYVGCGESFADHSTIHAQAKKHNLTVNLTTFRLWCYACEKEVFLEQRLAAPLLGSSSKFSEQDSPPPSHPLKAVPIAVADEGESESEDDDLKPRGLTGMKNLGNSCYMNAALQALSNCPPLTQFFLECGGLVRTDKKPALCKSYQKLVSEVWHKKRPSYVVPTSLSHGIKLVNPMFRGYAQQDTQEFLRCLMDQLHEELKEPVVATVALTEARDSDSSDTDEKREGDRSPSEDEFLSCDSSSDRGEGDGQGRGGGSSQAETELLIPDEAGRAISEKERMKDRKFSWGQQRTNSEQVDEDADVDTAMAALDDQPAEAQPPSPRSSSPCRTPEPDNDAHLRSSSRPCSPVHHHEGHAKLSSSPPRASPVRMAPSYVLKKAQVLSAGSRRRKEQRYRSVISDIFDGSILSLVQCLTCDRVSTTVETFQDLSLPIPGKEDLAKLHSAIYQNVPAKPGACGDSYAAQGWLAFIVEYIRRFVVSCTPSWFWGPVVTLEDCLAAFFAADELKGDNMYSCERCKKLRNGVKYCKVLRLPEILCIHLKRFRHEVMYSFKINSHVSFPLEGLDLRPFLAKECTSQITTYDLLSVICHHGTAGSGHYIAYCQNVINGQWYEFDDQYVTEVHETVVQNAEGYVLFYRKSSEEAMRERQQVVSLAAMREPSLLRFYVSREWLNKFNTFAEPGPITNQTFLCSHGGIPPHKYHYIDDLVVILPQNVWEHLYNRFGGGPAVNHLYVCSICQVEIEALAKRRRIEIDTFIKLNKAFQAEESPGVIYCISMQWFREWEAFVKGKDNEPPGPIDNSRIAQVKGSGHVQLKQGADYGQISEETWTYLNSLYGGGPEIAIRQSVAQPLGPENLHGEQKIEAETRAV
experimentalReadout: IC50

Worked examples, 2 molecules total:
{"molecularString": "C[C@H](c1cccc2ccccc12)N1CCC(C(=O)NCc2ccc(F)cc2)CC1", "dataValue": "> 100 µM"}
{"molecularString": "C[C@H](c1cccc2ccccc12)N1CCC(C(=O)NCc2cccc(F)c2)CC1", "dataValue": "> 100 µM"}

Now examine the next entry.
Please look up its IC50: `CC(=O)Nc1cccc(CNC(=O)C2CCN([C@H](C)c3cccc4ccccc34)CC2)c1` > 100 µM

###

molecular target: Replicase polyprotein 1a (Human coronavirus NL63); assay: Inhibition of human coronavirus NL63 PLP2 (amino acids 1565 to 1894) expressed in Escherichia coli BL21 (DE3) cells assessed as reduction of AMC release using Z-RLRGG-AMC as substrate by multimode plate reader analysis
experimentalReadout: Imax (%)
Write the answer as a number in %, unit excluded.

Use these answered entries as a reference point.
{"molecularString": "CC(=O)Nc1cccc(CNC(=O)C2CCN([C@H](C)c3cccc4ccccc34)CC2)c1", "experimentalReadout": "Imax", "dataValue": 71}
{"molecularString": "C[C@H](c1cccc2ccccc12)N1CCC(C(=O)NCc2cccc(F)c2)CC1", "experimentalReadout": "Imax", "dataValue": 57}
{"molecularString": "CC(=O)Nc1ccc(CNC(=O)C2CCN([C@H](C)c3cccc4ccccc34)CC2)cc1", "experimentalReadout": "Imax", "dataValue": 42}
{"molecularString": "C[C@H](c1cccc2ccccc12)N1CCC(C(=O)NCc2ccc3c(c2)OCO3)CC1", "experimentalReadout": "Imax", "dataValue": 46}
{"molecularString": "COc1cc(CNC(=O)C2CCN([C@H](C)c3cccc4ccccc34)CC2)ccn1", "experimentalReadout": "Imax", "dataValue": 67}

# next compound below
Test system Replicase polyprotein 1a (Human coronavirus NL63); read-out Imax; what value for `C[C@H](c1cccc2ccccc12)N1CCC(C(=O)NCc2ccc(F)c(F)c2)CC1` ? 48

Where do these numbers come from? They come from ChEMBL document CHEMBL3232931.
